Ends that are not written are not given here.
Assay read-out log10(MIC C. albicans); system under study: Candida albicans.
log10 MIC C. albicans, µg/mL

Exam item: Given ILRRVRVRAVAI-NH2 (C-terminus assumed) [Bac022] , respond with its log10(MIC C. albicans).
Marked response: 2.43

Exam item: Given RWWKIWVIRWWR-NH2 (C-terminus assumed) [Bac432] , respond with its log10(MIC C. albicans).
Marked response: 1.49

Exam item: Given RLARIVVIRVAG-NH2 (C-terminus assumed) [Bac415] , respond with its log10(MIC C. albicans).
Marked response: 1.80

Exam item: Given RLWRIVVIRVAR-NH2 (C-terminus assumed) [Bac256] , respond with its log10(MIC C. albicans).
Marked response: 0.90

Parameters: items (list). Returns: log10(MIC C. albicans) for each item.
1. RGARIVVIRVAR-NH2 (C-terminus assumed) [Bac225]
2. VRLRIRVAVIRA-NH2 (C-terminus assumed) [Bac034]
3. RRAAVVLIVIRR-NH2 (C-terminus assumed) [Bac020]
4. RLARQVVIRVAR-NH2 (C-terminus assumed) [Bac289]
5. RRWVIWRR-NH2 (C-terminus assumed) [Bac437]
6. VIRRRRILAAVV-NH2 (C-terminus assumed) [Bac044]

Marked response:
1. 1.20
2. 0.90
3. 1.04
4. 0.90
5. 1.80
6. 2.13

Parameters: items (list). Returns: log10(MIC C. albicans) for each item.
1. RLRRIVVIRVAR-NH2 (C-terminus assumed) [Bac252]
2. RRARIVVIRVAR-NH2 (C-terminus assumed) [Bac233]
3. RRWRIVVIRVRR-NH2 (C-terminus assumed) [Bac430]
4. LARIVVIRVAR-NH2 (C-terminus assumed) [Bac102]
5. RLARRVVIRVAR-NH2 (C-terminus assumed) [Bac290]
6. RLRRIVVIRVRR-NH2 (C-terminus assumed) [Bac433]

Marked response:
1: 1.20; 2: 0.90; 3: 0.60; 4: 1.92; 5: 2.10; 6: 1.49

Parameters: items (list). Returns: log10(MIC C. albicans) for each item.
1. KIWVIRWR-NH2 (C-terminus assumed) [Bac434]
2. RIWVIWRR-NH2 (C-terminus assumed) [Bac436]
3. RLARIVKIRVAR-NH2 (C-terminus assumed) [Bac323]
4. RIWVIRWR-NH2 (C-terminus assumed) [Bac435]
5. RAVAVIIRLRRV-NH2 (C-terminus assumed) [Bac014]

Marked response:
[1.20, 0.90, 1.49, 1.20, 0.90]
